Entries and their percent response (vesicle binding)
METHOD_SUMMARY: modulators of CD8 T cell-vesicle binding, confirmation, cherry-picked primary hits, two concentrations (AID 2810);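 note: lower values mean blocking of vesicle binding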;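 for percent response (vesicle binding): ratio of mean FL2 vesicle stain of CD8+ cells to that row's control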
CONDITION_SUMMARY: 2C CD8+ T cell-vesicle binding, flow cytometry; response; at 7.7 µM
Out of some 1,200 compounds screened, about 65 (5%) were called active. The list comes from a sample in which actives are over-represented; it also holds close analogues and randomly drawn compounds.
ASSAY_METRIC: percent response (vesicle binding) (%)

{"COMPOUND": "CCOc1ccc(CCNC(=O)c2cccc(-n3cnnn3)c2)cc1OCC", "EXPERIMENTAL_VALUE": 237}
{"COMPOUND": "c1ccc2c(c1)COC(CN1CCCCC1)OC2", "EXPERIMENTAL_VALUE": 439}
{"COMPOUND": "COc1ccc(NC(=O)Nc2ccc(O)c3ccccc23)cc1", "EXPERIMENTAL_VALUE": 35.3}
{"COMPOUND": "COc1ccc(C2(O)CCN(CCCCOc3ccccc3)CC2)cc1", "EXPERIMENTAL_VALUE": 174}
{"COMPOUND": "CCCc1nnc(NC(=O)c2ccc(S(=O)(=O)N(C)c3ccccc3OC)cc2)s1", "EXPERIMENTAL_VALUE": 216}
{"COMPOUND": "CCN(Cc1ccccc1)C(=O)c1ccc(C)c(S(=O)(=O)N2CCCCC2)c1", "EXPERIMENTAL_VALUE": 111}
{"COMPOUND": "O=C(O)c1ccc(N2C(=O)CC(SC(=Nc3ccccc3)Nc3ccccc3)C2=O)cc1 (stereo unspecified)", "EXPERIMENTAL_VALUE": 663}
{"COMPOUND": "CC(C)NC(=O)NC(=O)COC(=O)c1ccc(F)cc1F", "EXPERIMENTAL_VALUE": 423}
{"COMPOUND": "O=C(CC1=NCCNC(c2ccccc2)C1)c1ccccc1O (stereo unspecified)", "EXPERIMENTAL_VALUE": 316}
{"COMPOUND": "CC(=O)NN1C(=O)c2ccccc2NC1c1ccco1 (stereo unspecified)", "EXPERIMENTAL_VALUE": 361}
{"COMPOUND": "O=C(Nc1ccccc1C(=O)OCC(=O)c1c[nH]c2ccccc12)c1ccco1", "EXPERIMENTAL_VALUE": 174}

---

METHOD_SUMMARY: modulators of CD8 T cell-vesicle binding, confirmation, cherry-picked primary hits, two concentrations (AID 2810);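 note: lower values mean blocking of vesicle binding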;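 for percent response (vesicle binding): ratio of mean FL2 vesicle stain of CD8+ cells to that row's control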
CONDITION_SUMMARY: 2C CD8+ T cell-vesicle binding, flow cytometry; at 15.4 µM; stronger effect = lower value
The whole screen tested about 1,200 compounds, of which about 65 (5%) were called active. The entries come from a sample that favours actives as a whole.
So basically, if percent response (vesicle binding) comes in under 200% it's met, and if it's 200% or more it's not met.

{"COMPOUND": "Cc1ccc(S(=O)(=O)N2CCN(CCOc3c(Cl)cccc3Cl)CC2)cc1C", "CAT": "not met"}
{"COMPOUND": "O=C(CN1C(=O)C2CCCN2C(=O)c2ccccc21)Nc1ccccc1-n1cccc1 (stereo unspecified)", "CAT": "not met"}
{"COMPOUND": "Cc1ccc(NC(=O)C2CCCO2)cc1[N+](=O)[O-] (stereo unspecified)", "CAT": "met"}
{"COMPOUND": "COc1ccc(S(=O)(=O)N(C)C[C@H]2Oc3ccc(NC(=O)C4CC4)cc3C(=O)N([C@H](C)CO)C[C@@H]2C)cc1", "CAT": "met"}
{"COMPOUND": "CCOC(=O)C1CCN(C(=O)c2cccc(S(=O)(=O)NCc3ccccc3)c2)CC1", "CAT": "not met"}
{"COMPOUND": "Cc1cc(C)nc(SCCn2c(N3CC(C)OC(C)C3)nc3c2c(=O)n(C)c(=O)n3C)n1 (stereo unspecified)", "CAT": "not met"}
{"COMPOUND": "O=C(OCCOc1cccc(Cl)c1)c1ccc(F)c(S(=O)(=O)N2CCOCC2)c1", "CAT": "met"}
{"COMPOUND": "CCCCN(C(=O)CCCc1nc2ccccc2s1)c1c(N)n(CC(C)C)c(=O)[nH]c1=O", "CAT": "met"}
{"COMPOUND": "Cc1ccc(CN2CC(=O)N3[C@H]4c5cc(C)ccc5OC[C@@H]4[C@H](c4ccccc4)[C@]3(C)C2=O)cc1", "CAT": "met"}
{"COMPOUND": "CCSc1ncnc2sc(C)c(C)c12", "CAT": "not met"}
{"COMPOUND": "NC(=O)CCS(=O)(=O)CCN1CCN(S(=O)(=O)c2ccc3c(c2)CCC3)CC1", "CAT": "met"}
{"COMPOUND": "CC(C)(CNC(=O)c1cc2c(s1)CCCC2)N1CCOCC1", "CAT": "not met"}
{"COMPOUND": "CCOC(=O)c1ccc(S(=O)(=O)N2CCN(C3CCCC3)CC2)cc1", "CAT": "not met"}
{"COMPOUND": "CCc1noc(C)c1C(=O)OC(C)C(=O)Nc1ccc2c(c1)OCO2 (stereo unspecified)", "CAT": "met"}
{"COMPOUND": "CCC(=O)NC(NC(=S)Nc1c(C)n(C)n(-c2ccccc2)c1=O)C(Cl)(Cl)Cl (stereo unspecified)", "CAT": "met"}
{"COMPOUND": "COc1ccc(C(=O)N2CCN(c3ccc(NC(=O)Cc4ccccc4)cc3)CC2)cc1", "CAT": "not met"}
{"COMPOUND": "CC(Sc1nc2ccccc2s1)C(=O)Nc1ccc2c(c1)OCO2 (stereo unspecified)", "CAT": "not met"}
{"COMPOUND": "Nc1ccccc1C(=O)N/N=C1\\C2CN3CCN(C2)CC1(c1ccccc1)C3", "CAT": "met"}
{"COMPOUND": "Cc1cccc(Nc2nc(-c3ccccn3)cs2)n1", "CAT": "met"}

---

METHOD_SUMMARY: modulators of CD8 T cell-vesicle binding, confirmation, cherry-picked primary hits, two concentrations (AID 2810);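 note: lower values mean blocking of vesicle binding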
CONDITION_SUMMARY: 2C CD8+ T cell-vesicle binding, flow cytometry; CD8+/vesicle+ events; at 7.7 µM
About 65 (5%) of roughly 1,200 compounds were called active. This is one part of a sample in which actives are shown more often than they occur.
So basically, if double positive events comes in under 20% it's 1, and if it's 20% or more it's 0.

{"COMPOUND": "Cc1ccc(S(=O)(=O)N2CCC(NC(=O)c3ccccc3)CC2)cc1", "CAT": 0}
{"COMPOUND": "COc1cc(C(C)=O)ccc1O", "CAT": 0}
{"COMPOUND": "Cc1ccc(S(=O)(=O)N(C)CC(=O)Nc2nc3ccccc3s2)cc1", "CAT": 0}
{"COMPOUND": "O=c1[nH]c(CN(CCc2ccccc2)S(=O)(=O)c2ccc(Cl)cc2)nc2ccccc12", "CAT": 1}
{"COMPOUND": "COc1ccc(C(=O)NNC(=O)CSc2nnnn2C)cc1", "CAT": 1}
{"COMPOUND": "Cc1cc(C)c(/C=N/NC(N)=O)c(C)c1/C=N/NC(N)=O", "CAT": 0}
{"COMPOUND": "O=C(Cc1cccc(NC(=O)C2CCCN(C(=O)C3CC3)C2)c1)Nc1cccc(C(=O)N2CCCC2)c1 (stereo not drawn)", "CAT": 0}
{"COMPOUND": "COc1ccc(C(=O)CSc2nnc(CNC(=O)c3ccc(OC)c(OC)c3)n2C)cc1", "CAT": 1}
{"COMPOUND": "CN(CC(=O)Nc1cccc(F)c1)C(=O)c1ccc(S(=O)(=O)N2CCCC2)cc1", "CAT": 0}
{"COMPOUND": "O=C(CSCCO)N1CCc2ccccc21", "CAT": 1}
{"COMPOUND": "CCOC(=O)C1(Cc2cccc(OC)c2)CCN(C/C=C/c2ccccc2)CC1", "CAT": 0}
{"COMPOUND": "CC(=O)c1ccc(-c2csc(N3CCC(C(N)=O)CC3)n2)cc1", "CAT": 1}
{"COMPOUND": "C=CCN1C(=O)c2ccc(C(=O)N3CCN(S(=O)(=O)c4cccc(Cl)c4)CC3)cc2C1=O", "CAT": 1}
{"COMPOUND": "COc1ccc(CNc2nnnn2C)cc1", "CAT": 0}
{"COMPOUND": "O=C(c1c[nH]c2ccccc12)N1CCN(Cc2ccccc2)CC1", "CAT": 1}
{"COMPOUND": "O=C1CCCc2sccc2N1", "CAT": 1}
{"COMPOUND": "COc1ccc(NC(=O)C2CCC(C(C)(C)C)CC2)cc1S(=O)(=O)N1CCCCC1 (stereo not drawn)", "CAT": 1}
{"COMPOUND": "c1ccc2c(c1)COC(CN1CCCCC1)OC2", "CAT": 1}
{"COMPOUND": "c1csc(-c2nc3ccccc3[nH]2)c1", "CAT": 0}
{"COMPOUND": "CN(Cc1ccccc1)C(=O)c1ccc(NC(=O)Cc2cccc(NC(=O)C3CCCN(C(=O)C4CCC4)C3)c2)cc1 (stereo not drawn)", "CAT": 1}
{"COMPOUND": "CS(=O)(=O)c1cccc(-c2csc(N3CCC(C(N)=O)CC3)n2)c1", "CAT": 1}
